tested on: HOP-62 NSCLC; assay: NCI tumour cell line growth inhibition, 48 h
READOUT LABEL: log10(TGI) (log10 of the value in µM)
Note the log scale: values are log10 of TGI expressed in µM.

Briefly, log10(TGI) measured for CC1=CCC[C@H]2[C@](C)(CC3=CC(=O)C(SCC(C)C)=CC3=O)[C@@H](C)CC[C@]12C : 1.49

get_value(item= S=C1Cc2c(-c3ccc(Br)cc3)cc(-c3ccccc3)nc2-c2ccccc2N1 , readout=log10(TGI)) returns 0.48

The recorded log10(TGI) for Cc1cc(C)c(C#N)c(Sc2nc(C)c([N+](=O)[O-])c(C)c2C#N)n1 is 1.10

Per the records, this compound ( CC1CCC2(OC1)OC1C(O)C3C4CCC5CC(OC6OC(CO)C(OC7OC(CO)C(O)C(OC8OCC(O)C(O)C8O)C7OC7OC(CO)C(O)C(OC8OC(CO)C(O)C(O)C8O)C7O)C(O)C6O)C(O)CC5(C)C4CCC3(C)C1C2C (centres undefined) ) has log10(TGI) equal to 0.59

The compound identified as CC(C)=CCC[C@@H](C)C1=C(O)C(Nc2ccccc2I)=C(C)C(=O)C1=O registered its log10(TGI) at 1.36

Entry COc1cccc(C2c3cc4c(cc3OC(Nc3ccccc3)C2C)OCO4)c1O (centres undefined) ; log10(TGI) = 1.57
